Kindly supply the reported MPO kinact/Ki values for the records listed here.
SYSTEM_UNDER_TEST: MPO (purified from human polynuclear leukocytes) (Homo sapiens, UniProt P05164)
Construct: purified from human polynuclear leukocytes; purchased Calbiochem/EMD Biosciences; host or cells: human polynuclear leukocytes (natural source)
Sequence (P05164 279-745 limits assumed): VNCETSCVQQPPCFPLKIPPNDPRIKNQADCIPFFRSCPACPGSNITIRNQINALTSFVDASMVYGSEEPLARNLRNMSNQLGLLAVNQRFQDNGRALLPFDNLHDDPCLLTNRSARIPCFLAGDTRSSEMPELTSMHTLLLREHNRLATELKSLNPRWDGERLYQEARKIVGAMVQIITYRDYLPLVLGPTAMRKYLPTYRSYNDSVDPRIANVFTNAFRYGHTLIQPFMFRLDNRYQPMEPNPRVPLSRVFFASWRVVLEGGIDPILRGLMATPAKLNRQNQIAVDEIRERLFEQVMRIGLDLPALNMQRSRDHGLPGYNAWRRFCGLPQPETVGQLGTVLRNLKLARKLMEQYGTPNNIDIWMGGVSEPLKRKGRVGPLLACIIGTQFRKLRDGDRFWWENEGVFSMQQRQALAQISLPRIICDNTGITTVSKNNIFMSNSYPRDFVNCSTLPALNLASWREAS
Sequence (P05164 165-273 limits assumed): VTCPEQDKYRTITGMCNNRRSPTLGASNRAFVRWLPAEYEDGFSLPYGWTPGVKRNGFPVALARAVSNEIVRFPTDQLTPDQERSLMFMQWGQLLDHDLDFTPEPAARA
EXPERIMENTAL_DETAILS: MPO Amplex Red Activity Assay
Format: biochemical
APPLIED_CONDITIONS: Table 1A, 2 μM H2O2, pH 7.4

Incoming: Form field: reported MPO kinact/Ki of COc1ccc(-c2cc(=O)[nH]c(=S)n2CCN(C)C(=O)CN)c(OC)c1
Outgoing: 3310 1/s per M

Incoming: Form field: reported MPO kinact/Ki of COc1ccc(-c2cc(=O)[nH]c(=S)n2CC(F)(F)CN=C(N)N)c(OC)c1
Outgoing: 27800 1/s per M

Incoming: Form field: reported MPO kinact/Ki of COc1ccc(-c2cc(=O)[nH]c(=S)n2CC(=O)N2CCNCC2)c(OC)c1
Outgoing: 4050 1/s per M

Incoming: Form field: reported MPO kinact/Ki of O=c1cc(-c2ccccc2O)n(CCO)c(=S)[nH]1
Outgoing: 13600 1/s per M

Incoming: Form field: reported MPO kinact/Ki of COc1ccc(-c2cc(=O)[nH]c(=S)n2CCC(=O)NC(=N)N)c(OC)c1
Outgoing: 14200 1/s per M

Incoming: Form field: reported MPO kinact/Ki of COc1ccc(-c2cc(=O)[nH]c(=S)n2CC(=O)NCCNCC2CC2)c(OC)c1
Outgoing: 7350 1/s per M

Incoming: Form field: reported MPO kinact/Ki of NC(=O)Cn1c(-c2ccccc2OCCO)cc(=O)[nH]c1=S
Outgoing: 3630 1/s per M

Incoming: Form field: reported MPO kinact/Ki of COc1ccc(-c2cc(=O)[nH]c(=S)n2CC(=O)N[C@H]2C[C@H](N)C2)c(OC)c1
Outgoing: 3400 1/s per M

Incoming: Form field: reported MPO kinact/Ki of COc1ccc(-c2cc(=O)[nH]c(=S)n2CCCN)c(OCCO)c1
Outgoing: 4810 1/s per M

* * *

Kindly supply the reported MPO kinact/Ki values for the records listed here.
SYSTEM_UNDER_TEST: MPO (purified from human polynuclear leukocytes) (Homo sapiens)
Construct: purified from human polynuclear leukocytes; purchased Calbiochem/EMD Biosciences; host or cells: human polynuclear leukocytes (natural source)
EXPERIMENTAL_DETAILS: MPO Amplex Red Activity Assay
Type: biochemical
APPLIED_CONDITIONS: Table 1, 2 μM H2O2, pH 7.4
Counter-ions that a name gives are not always drawn.

Incoming: Form field: reported MPO kinact/Ki of COc1ccc(-c2cc(=O)[nH]c(=S)n2CCC(C)(C)N)c(OC)c1 [Example 219, hydrochloride]
Outgoing: 1970 1/s per M

Incoming: Form field: reported MPO kinact/Ki of COCCn1c(-c2cc(F)ccc2OC)cc(=O)[nH]c1=S [Example 317]
Outgoing: 7380 1/s per M

Incoming: Form field: reported MPO kinact/Ki of COc1ccc(-c2cc(=O)[nH]c(=S)n2CCCSC)c(OC)c1 [Example 227]
Outgoing: 745 1/s per M

Incoming: Form field: reported MPO kinact/Ki of COCCn1c(-c2cccc(OC(F)(F)F)c2)cc(=O)[nH]c1=S [Example 340]
Outgoing: 1450 1/s per M

Incoming: Form field: reported MPO kinact/Ki of COCCn1c(-c2cccc(C#N)c2)cc(=O)[nH]c1=S [Example 291]
Outgoing: 2450 1/s per M

Incoming: Form field: reported MPO kinact/Ki of COc1ccc(-c2cc(=O)[nH]c(=S)n2CC(=O)OC(C)(C)C)c(OC)c1 [Example 137]
Outgoing: 701 1/s per M

Incoming: Form field: reported MPO kinact/Ki of COc1ccc(C)cc1-c1cc(=O)[nH]c(=S)n1CCCN [Example 43, hydrochloride]
Outgoing: 34600 1/s per M

Incoming: Form field: reported MPO kinact/Ki of COCCn1c(-c2ccc(OC)c(OC)c2OC)cc(=O)[nH]c1=S [Example 343]
Outgoing: 3570 1/s per M

Incoming: Form field: reported MPO kinact/Ki of COc1ccc(Cl)cc1-c1cc(=O)[nH]c(=S)n1CCCNC(C)=O [Example 134]
Outgoing: 5350 1/s per M

Incoming: Form field: reported MPO kinact/Ki of COc1ccc(-c2cc(=O)[nH]c(=S)n2CC(=O)NCC(N)=O)c(OC)c1 [Example 254]
Outgoing: 5630 1/s per M

Incoming: Form field: reported MPO kinact/Ki of COc1ccc(-c2cc(=O)[nH]c(=S)n2CCC2CCNCC2)c(OC)c1 [Example 152, hydrochloride]
Outgoing: 4770 1/s per M

Incoming: Form field: reported MPO kinact/Ki of COc1ccc(Cl)cc1-c1cc(=O)[nH]c(=S)n1CC(N)=O [Example 1]
Outgoing: 11600 1/s per M

Incoming: Form field: reported MPO kinact/Ki of COCCn1c(-c2ccc(OC(C)C)cc2)cc(=O)[nH]c1=S [Example 327]
Outgoing: 1880 1/s per M

Incoming: Form field: reported MPO kinact/Ki of COCCn1c(-c2cc(OC)c(C)cc2OC)cc(=O)[nH]c1=S [Example 275]
Outgoing: 4730 1/s per M

Incoming: Form field: reported MPO kinact/Ki of COc1ccc(-c2cc(=O)[nH]c(=S)n2C[C@@H]2CCCO2)c(OC)c1 [Example 213]
Outgoing: 4690 1/s per M

Incoming: Form field: reported MPO kinact/Ki of COc1ccc(C)nc1-c1cc(=O)[nH]c(=S)n1CCO [Example 22]
Outgoing: 6340 1/s per M

Incoming: Form field: reported MPO kinact/Ki of COc1cc(OC)cc(-c2cc(=O)[nH]c(=S)n2CCCN)c1 [Example 85, hydrochloride]
Outgoing: 10700 1/s per M

Incoming: Form field: reported MPO kinact/Ki of COc1cc(-c2cc(=O)[nH]c(=S)n2CCCN)c(OC)cc1C [Example 106, hydrochloride]
Outgoing: 10500 1/s per M
